Consider the following compounds; for each one, report its pEC50.
Molecular target: CepR (Burkholderia multivorans)
Sequence (Q93PF7 1-239): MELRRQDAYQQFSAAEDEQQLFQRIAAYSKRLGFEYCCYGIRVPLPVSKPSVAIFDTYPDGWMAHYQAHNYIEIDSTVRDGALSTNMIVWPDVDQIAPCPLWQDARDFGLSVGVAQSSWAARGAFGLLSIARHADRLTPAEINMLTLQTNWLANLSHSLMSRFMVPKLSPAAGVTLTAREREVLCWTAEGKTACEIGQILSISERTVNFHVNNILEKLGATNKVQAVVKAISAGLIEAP
Assay: CepR agonism in B. multivorans cepI::lacZ reporter (Bm-reporter)
Assay type: cell-based
Details: Bm-reporter, agonism dose-response; read-out: EC50
One number for each entry, as −log10 of the molar value.

CSc1ccc(CCC(=O)N[C@H]2CCOC2=O)cc1	9.03

State the recorded pEC50 for every item in the following list.
1. O=C(CCc1cccc(I)c1)N[C@H]1CCOC1=O
2. O=C(CCCOc1ccc(Cl)cc1)NC1CCOC1=O (stereo not drawn) [CL, reference compound]

// result
1. 9.82
2. 6.03

// input: 2 compounds below; output: pEC50 for each
1. O=C(CCc1ccc(Cl)cc1)N[C@H]1CCOC1=O
2. O=C(CCc1ccc(Br)cc1)N[C@H]1CCOC1=O

// result
1. 9.12
2. 9.62
